test system: NCI-H522 lung; assay: NCI tumour cell line growth inhibition, 48 h
Hi there, I'd appreciate the recorded TGI for every entry that follows.

// query Recorded TGI of FC(F)c1ncc(-c2ccc(C(F)(F)F)cc2)c(NC2CCCCCC2)n1 , please.
// result > 10 µM

// query Find the recorded TGI belonging to CC/C=C/c1cc2c(cc1O)CCC1C2CC[C@@]2(C)C1CC[C@@H]2O (stereo partly specified) and report it.
// result 14.1 µM

// query GET /values?readout=TGI&item= COc1cccc2c1OC1c3ccccc3OCC1(O)C2 (stereo unspecified)
// result > 100 µM

// query Give the measured TGI of O=C1NC(=O)C(=Cc2cn(Cc3ccccc3)c3ccccc23)C(=O)N1 .
// result 37.2 µM

// query Quick check: TGI of O=c1cc(-c2ccccc2)oc2c1ccc1[nH]c3ccccc3c(=O)c12 ?
// result > 100 µM

// query Need TGI, item CCc1ccc2oc(=O)ccc2c1
// result > 100 µM

// query Sample C/C(=N\Nc1nc2ccccc2[nH]1)c1ncccn1 — what was its TGI?
// result > 64.3 µM

// query Sample COC(=O)C1C(=O)CC(C)(O)C(C(=O)OC)C1c1ccc(N(C)C)cc1 (stereo unspecified) — what was its TGI?
// result > 100 µM

// query Name the reported TGI value associated with the compound O=C1C=C(N2CCN(c3ncccn3)CC2)C(=O)c2c(O)ccc(O)c21
// result > 100 µM

// query Which TGI value belongs to NC1CCCCC1NCCNC1CCCCC1N (stereo unspecified) ?
// result > 100 µM

// query Which value of TGI has been reported for CCOC(=O)c1sc2c(C(=O)OCC)n3cc(C)cc(C)c3c2c1O in the records?
// result > 100 µM

// query Return reported TGI; argument: COC1=C(OC)C(=O)C(C/C=C(\C)CC/C=C(\C)CC/C=C(\C)CC/C=C(\C)CC/C=C(\C)CC/C=C(\C)CC/C=C(\C)CC/C=C(\C)CC/C=C(\C)CCC=C(C)C)=C(C)C1=O
// result > 100 µM

// query Entry C=C(C)[C@@H]1CCc2c(O)c(O)c(=O)cc(C)c2C1 : reported TGI = ?
// result > 96.6 µM

// query Query: TGI; subject: CC(C)N(C(=O)C12C3C4C5(C(=O)O)C(C1C35I)C42C(=O)O)C(C)C (stereo unspecified)
// result > 100 µM

// query I would be grateful if you could share the reported TGI for COc1ccc(-c2cc3ccccc3[nH]c2=O)cc1OC .
// result > 100 µM

// query Looking for the measured TGI of O=c1[nH]n(CCc2ccccc2CCl)c2ccc([N+](=O)[O-])cc12 , can you help?
// result > 100 µM

// query What does the data say about its TGI? Entry: COc1ccc(Br)c(CN2CCc3ccccc32)c1OS(=O)(=O)c1ccc(C)cc1
// result 30.8 µM

// query Look at this compound and give its reported TGI. CC1=C(CO)C(=O)O[C@@H]([C@@H](C)[C@H]2CC[C@H]3[C@@H]4C[C@H]5O[C@]56[C@@H](O)C=CC(=O)[C@]6(C)[C@H]4CC[C@]23C)C1
// result 0.114 µM

// query Would you kindly share the measured TGI for CCOC(=O)c1c(-c2ccccc2)[n+](=O)c2cc(F)c(F)cc2n1[O-] ?
// result > 100 µM

// query Returns the measured TGI for the input compound. Input: O=C(O)CSC1=NNC2(C(=O)N1)c1ccccc1-c1ccccc12
// result > 10 µM

// query Field request: TGI | item: O=[N+]([O-])c1cc(/C=N\NS(=O)(=O)c2ccc(Cl)cc2)c(O)c([N+](=O)[O-])c1
// result 52.4 µM

---

tested on: UO-31 renal; assay: NCI tumour cell line growth inhibition, 48 h
For each record, write down the corresponding TGI.

// query Would you mind telling me what TGI value was observed for COC(=O)C(=O)C(C(=O)C(=O)Nc1ccccc1[N+](=O)[O-])c1nc2ccc([N+](=O)[O-])cc2[nH]c1=O (stereo not given) ?
// result > 100 µM

// query What measured TGI goes with Cc1nc(NS(=O)(=O)c2ccc(NCN3C(=O)c4ccccc4C3=O)cc2)oc1C ?
// result > 100 µM

// query Which TGI reading was recorded for the compound COC(=O)CC1(O)C=CC(=O)C=C1 ?
// result 9.93 µM

// query Endpoint output: TGI of FC(F)c1ncc(-c2ccc(C(F)(F)F)cc2)c(NC2CCCCCC2)n1 . Value?
// result > 10 µM

// query # get_value(readout='TGI', item= Brc1cc(C2OCCCO2)ccc1OCc1ccccc1 )
// result > 100 µM

---

For each of the compounds below, state its TGI.
tested on: SK-MEL-5 melanoma; assay: NCI tumour cell line growth inhibition, 48 h

// query Find the recorded TGI belonging to O=C1NC(=O)C(c2cccc(Cl)c2)=C1Nc1ccc(Cl)c(C(=O)O)c1 and report it.
// result > 25 µM

// query Look up TGI for this compound: COc1cc(Cl)c(CC(=O)c2c[nH]c3ccccc23)cc1OC
// result > 100 µM

// query # input compound: Cn1c2ccccc2n2c3ncccc3c(=O)cc12 ; wanted: its TGI
// result > 100 µM

// query Requested read-out: TGI. Entry: O=c1[nH]n(CCc2ccccc2CCl)c2ccc([N+](=O)[O-])cc12
// result > 100 µM

// query May I ask what TGI has been recorded for O=c1cc(-c2ccccc2)oc2c1ccc1[nH]c3ccccc3c(=O)c12 ?
// result > 100 µM

// query I have this compound here, OCCCCC#Cc1ccccc1C#Cc1cccnc1 , and I need its recorded TGI.
// result > 100 µM

// query Bench note: what TGI did C=C(Br)C[N+]12CN3CN(CN(C3)C1)C2 show?
// result > 100 µM

// query Would you mind telling me what TGI value was observed for Cn1c2ccc(Cl)cc2c2ccc3c(c21)C(=O)C=CC3=O ?
// result > 10 µM

// query Which TGI reading was recorded for the compound CN(C)c1ccc(/C=c2/c3ccccc3n3c2cc(/C=C/c2ccccc2)[n+]3C)cc1 ?
// result 0.272 µM

// query For the compound Cc1cc(C)c2c(c1)C/C(=C\c1cccc(C)c1C(=O)O)C2=O , what TGI is on record?
// result > 100 µM

// query Which TGI is reported for this compound? CCCC(O)c1cn(-c2cccc(S(=O)(=O)O)c2)nn1 (configuration not stated)
// result > 100 µM

// query Recorded TGI of C=CC1C(CC2OC(CO)C(O)C(O)C2O)OC=C2C(=O)OCCC21O (configuration not stated) , please.
// result 37.5 µM

// query Consider the compound shown here: COc1cccc(C(C#N)NNC(=O)c2c(Cl)c(Cl)c(Cl)c(Cl)c2-c2nc3ccc(C(=O)c4ccccc4)cc3[nH]2)c1O (configuration not stated) What is its recorded TGI?
// result 10.5 µM

// query Recorded TGI of CCOC(=O)[C@@]12C(C)=CC(=O)O[C@]1(C)C1C(=O)NC(=O)C12 (some centres not stated) , please.
// result > 100 µM

// query Look at this compound and give its reported TGI. Cc1nn(C)c2ncnc(N/N=C/c3cccc(O)c3O)c12
// result 2.31 µM

// query Data request, read-out TGI, for CCCC1=C(OC)C(=O)c2c(C)cc(Cl)nc2C1=O
// result 16.7 µM

// query Please report the recorded TGI for CN1CCN=C1c1nnn(-c2ccc([N+](=O)[O-])cc2)c1-c1ccccc1 .
// result > 100 µM

// query Which TGI reading was recorded for the compound Cc1cc(S(=O)(=O)Nc2nc3cscc3c(=O)n2N)c(S)cc1Cl ?
// result > 100 µM

// query Fill in: TGI of O=c1c2ccccc2nc(N/N=C/c2ccc([N+](=O)[O-])cc2)n1-c1ccccc1 is ___
// result > 100 µM

// query Look at this compound and give its reported TGI. CSc1nnc(SCc2nn3c(=O)cc(C)nc3s2)s1
// result > 100 µM

// query Quick one: TGI for CCN(CC)CCCNCc1cc(-c2ccccc2)nc2cc(Cl)ccc12 ?
// result 3.13 µM

// query Given the compound N#CC1=C(N)NC(N2CCOCC2)=NC12Nc1ccccc1O2 (configuration not stated) , what is its reported TGI?
// result > 100 µM

---

tested on: HCT-116 colon; test: NCI tumour cell line growth inhibition, 48 h
Please respond with reported TGI for every item in the list.

// query Can you share its TGI? I mean this compound: COc1cc(Cl)c(CC(=O)c2c[nH]c3ccccc23)cc1OC
// result > 100 µM

// query What TGI value was documented for this compound, Cc1nc(C)c(N2CCN(CN)CC2)c(=O)[nH]1 ?
// result > 100 µM

// query What value of TGI has been recorded for this entry: O=c1cc(N2CCOCC2)n2c(ccc3ccccc32)n1
// result > 100 µM

// query Entry CCCCCCC(=O)C/C(CCC(=O)N(Cc1ccccc1)Cc1ccccc1)=N\NC(N)=O has what TGI?
// result > 100 µM

// query Name the reported TGI value associated with the compound C=C(C(=O)OC)[C@@H]1CC2OC1C(=O)C(C)CCC/C(C)=C/CC[C@@]2(C)O (some centres not stated)
// result 26.2 µM

// query Entry Cc1c(Nc2nccc3cc(CN4CC[C@@H](O)C4)cnc23)cccc1-c1cccc(-c2nc3cc(CN4CC[C@@H](C(=O)O)C4)cc(C#N)c3o2)c1C : reported TGI = ?
// result 23.6 µM

// query Recorded TGI of Nc1ccc2c(=O)cc(-c3ccc(Br)s3)[nH]c2n1 , please.
// result > 100 µM

// query What value of TGI has been recorded for this entry: NC1CCCCC1NCCNC1CCCCC1N (configuration not stated)
// result > 100 µM

// query Record request: TGI value, item COC(=O)[C@@H](NS(=O)(=O)CC12CCC(CC1)C2(C)C)C(C)(C)C
// result > 100 µM

// query What does the data say about its TGI? Entry: CCOC(=O)CCc1cn2cc(Br)nc(OC)c2n1
// result > 100 µM

// query For the compound shown here, O=C1OC(=O)C23CSCC12C1C=CC3O1 (configuration not stated) , give the reported TGI.
// result > 100 µM

// query Report TGI for COC(=O)c1onc(C2OC(C)(C)OC2C(O)COC(c2ccccc2)(c2ccccc2)c2ccccc2)c1C(=O)OC (configuration not stated) please.
// result > 100 µM

// query Look up TGI: CCCC(O)c1cn(-c2cccc(S(=O)(=O)O)c2)nn1 (configuration not stated)
// result > 100 µM

// query Value lookup for TGI; key = Nc1nc(Cl)nc2c1ncn2C1OC(CO)C(O)C1F (configuration not stated)
// result > 100 µM

// query Suppose we examine the compound COc1cc(S(=O)(=O)Nc2nc(-c3ccc(N4C(=O)C(C)SC4c4ccccc4O)cc3)cs2)ccc1Cl (configuration not stated) ; what TGI value has been reported?
// result > 100 µM

// query What value of TGI has been recorded for this entry: Cc1ccccc1-n1c(=S)[nH]c2c(sc(=O)n2-c2ccccc2C)c1=O
// result > 100 µM

// query Look up TGI: Cc1cc(C)c2c(c1)C/C(=C\c1cccc(C)c1C(=O)O)C2=O
// result > 100 µM

// query Quick one: TGI of COc1cc2nc(N3CCC[C@H](NC4=CC(=O)c5ccccc5C4=O)C3)nc(N)c2cc1OC ?
// result 4.81 µM

// query Form field: reported TGI of CCN(CC)CCCNCc1cc(-c2ccccc2)nc2cc(Cl)ccc12
// result 4.28 µM

// query I am curious: what TGI value has been reported for Cc1nc2ccc(Br)cc2c(=O)n1-c1ccc(N)cc1 ?
// result > 100 µM

// query Would you kindly share the measured TGI for COc1c(C)c(C/C=C(\C)CCCC(C)CCCC(C)CCCC(C)C)c(OC)c2ccccc12 (configuration not stated) ?
// result > 100 µM

// query Value lookup for TGI; key = O=C(O)c1c2c(cc3c(=O)c4ccccc4[nH]c13)CCCC2
// result > 100 µM
